B1: Homeobox protein SIX6, residues 134 to 184; numbered along this chain, O95475 (parent)
chain: CFKERTRHLLREWYLQDPYPNPSKKRELAQATGLTPTQVGNWFKNRRQRDR

# Variants of: B1
# Method Summary: abundance fitness (aPCA) (normalised: wild type 0, dead -1); higher = more abundant; growth selection in yeast, the domain comes from the species named
# Setup Conditions: Homo sapiens
variants and their reported abundance fitness
Readout Name: abundance fitness

Mutation: Y19S
Recorded Value: -0.508
--
Mutation: T37N
Recorded Value: -0.169
--
Mutation: G40N
Recorded Value: -0.579
--
Mutation: R49W
Recorded Value: -0.594
--
Mutation: R46K
Recorded Value: -0.151
--
Mutation: R46L
Recorded Value: -0.604
--
Mutation: P20S
Recorded Value: -0.724
--
Mutation: D50Q
Recorded Value: -0.189
--
Mutation: D50V
Recorded Value: -0.881
--
Mutation: R49C
Recorded Value: -0.376
--
Mutation: E27C
Recorded Value: -0.441
--
Mutation: K44Y
Recorded Value: -0.604
--
Mutation: R47D
Recorded Value: -0.84
--
Mutation: D50P
Recorded Value: -0.862
--
Mutation: R46Q
Recorded Value: 0.11
--
Mutation: E27L
Recorded Value: -0.483
--
Mutation: G33E
Recorded Value: -0.722
--
Mutation: N45G
Recorded Value: -0.481
--
Mutation: Q38Y
Recorded Value: -0.77
--
Mutation: K25A
Recorded Value: -0.334
--
Mutation: K25S
Recorded Value: -0.423
--
Mutation: N41C
Recorded Value: -0.158
